- Experiment: Stability in PBS at 37 degC assessed as parent intact compound remaining level at 50 uM after 24 hrs by RP-HPLC analysis
- Assay type: physicochemical
- Protocol Conditions: read-out: Stabilty
Parameter: remaining at 24 h, 50 µM

Item: CC[C@H](C)[C@H]1C(=O)N[C@@H](C)C(=O)N(C)[C@@H](CC(C)C)C(=O)N[C@@H](Cc2ccc(OC)cc2)C(=O)N(C)[C@H](C)C(=O)O[C@H](C)[C@H](N(C)C(=O)[C@H](CC(C)C)N(C)C(=O)[C@H](C)N(C)C(=O)[C@H](OC(=O)[C@H](C(C)C)[N+](C)(C)Cc2ccc(NC(=O)OCCSSCCn3cc(CCC(=O)NCCCC[C@@H]4NC(=O)[C@@H](Cc5ccc(O)cc5)NC(=O)[C@H](CC(=O)O)NC(=O)CNC(=O)[C@H](CCCNC(=N)N)NC4=O)nn3)cc2)C(C)C)C(=O)N(C)[C@@H](C)C(=O)N1C.O=C([O-])C(F)(F)F | remaining at 24 h, 50 µM: > 90%
